Biological target: CaMKIIδ, Q13557
Sequence (Q13557 whole entry, stated change not applied): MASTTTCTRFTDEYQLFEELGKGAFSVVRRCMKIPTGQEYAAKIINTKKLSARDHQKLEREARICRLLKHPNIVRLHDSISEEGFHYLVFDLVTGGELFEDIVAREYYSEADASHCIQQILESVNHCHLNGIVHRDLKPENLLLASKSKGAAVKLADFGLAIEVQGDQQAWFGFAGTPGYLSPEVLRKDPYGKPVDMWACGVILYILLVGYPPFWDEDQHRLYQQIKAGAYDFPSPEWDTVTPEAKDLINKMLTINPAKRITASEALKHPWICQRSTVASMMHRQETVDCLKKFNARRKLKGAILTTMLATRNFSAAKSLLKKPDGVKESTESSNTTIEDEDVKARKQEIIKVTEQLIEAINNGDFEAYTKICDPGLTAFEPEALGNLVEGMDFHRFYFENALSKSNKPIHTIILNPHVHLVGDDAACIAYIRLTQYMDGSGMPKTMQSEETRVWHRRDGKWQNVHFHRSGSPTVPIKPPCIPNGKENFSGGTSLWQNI
Test: cell-based or functional assay
The entries below come with measured EC50 (inhibition of CaMKIIδ activity, ADP-GLO bioluminescent ADP monitoring assay) values attached.
Numbers only; they are read as nM.

AIPx5 multimer (peptide) peptide: YKKALHRQEAVDALYKKALHRQEAVDALYKKALHRQEAVDALYKKALHRQEAVDALYKKALHRQEAVDAL has a reported EC50 (inhibition of CaMKIIδ activity, ADP-GLO bioluminescent ADP monitoring assay) of 114

Record CN19oX3 multimer (peptide) peptide: KRAPKLGQIGRQKAVDIEDKRAPKLGQIGRQKAVDIEDKRAPKLGQIGRQKAVDIED , field EC50 (inhibition of CaMKIIδ activity, ADP-GLO bioluminescent ADP monitoring assay): 2.1
